Test: Pharmacokinetics after intravenous dosing in dogs (plasma concentrations by LC-MS/MS)
Assay type: in vivo, dogs (beagles)
Conditions: dog (beagle), 0.5 mg/kg intravenously, time 6.00 hours
measurement-name: concentration at 6 h (nM)
Answers are plain numbers, in nM.

Ask | Would you mind telling me what concentration at 6 h value was observed for COc1ccc(C(NC(=O)c2cnc(-c3cccnn3)nc2O)C2CCOCC2)cn1 (single isomer, unassigned) ?
Reply | 917

----------
Test: Pharmacokinetics after intravenous dosing in dogs (plasma concentrations by LC-MS/MS)
Format: in vivo, dogs (beagles)
Details: dog (beagle), 0.5 mg/kg intravenously, time 0.25 hours
measurement-name: concentration at 0.25 h
Write your answer as a measured quantity: the number, then the unit.

Ask | Dear colleague, I am looking for the recorded concentration at 0.25 h of the following compound: COc1ccc(C(NC(=O)c2cnc(-c3cccnn3)nc2O)C2CCOCC2)cn1 (single isomer, unassigned) [Example 1]
Reply | 2060 nM

----------
Assay: Pharmacokinetics after intravenous dosing in dogs (plasma concentrations by LC-MS/MS)
Type: in vivo, dogs (beagles)
Conditions: dog (beagle), 0.5 mg/kg intravenously
Method: The pharmacokinetics of Example 1 (E-1) was evaluated, and compared to that of Example 163 and Example 190 both disclosed in International PCT Application, No. PCT/US09/036,501, filed Mar. 9, 2009. Compounds were formulated in a 1:1 solution (by volume) of PEG200: water and dosed at 0.5 mg/kg of body weight. […] The plasma concentrations shown in the table below were determined by protein precipitation followed by liquid chromatography—tandem mass spectrometry analysis.
measurement-name: MRT (h)
One number for each entry, in h.

Ask | For the molecule shown here, COc1ccc(C(NC(=O)c2cnc(-c3cccnn3)nc2O)C2CCOCC2)cn1 (single isomer, unassigned) [Example 1] , give the reported MRT.
Reply | 7.93

----------
Test: Pharmacokinetics after intravenous dosing in dogs (plasma concentrations by LC-MS/MS)
Assay type: in vivo, dogs (beagles)
Conditions: dog (beagle), 0.5 mg/kg intravenously
measurement-name: clearance (L/h/kg)
Answers are plain numbers, in L/h/kg.

Ask | Need clearance, item COc1ccc(C(NC(=O)c2cnc(-c3cccnn3)nc2O)C2CCOCC2)cn1 (single isomer, unassigned)
Reply | 0.081

----------
Assay: Pharmacokinetics after intravenous dosing in dogs (plasma concentrations by LC-MS/MS)
Type: in vivo, dogs (beagles)
Conditions: dog (beagle), 0.5 mg/kg intravenously, time 8.00 hours
measurement-name: concentration at 8 h (nM)
Answers are plain numbers, in nM.

Ask | Entry COc1ccc(C(NC(=O)c2cnc(-c3cccnn3)nc2O)C2CCOCC2)cn1 (single isomer, unassigned) [Example 1] : reported concentration at 8 h = ?
Reply | 504

----------
Assay: Pharmacokinetics after intravenous dosing in dogs (plasma concentrations by LC-MS/MS)
Assay type: in vivo, dogs (beagles)
Details: dog (beagle), 0.5 mg/kg intravenously, time 0.50 hours
measurement-name: concentration at 0.5 h (nM)
Answers are plain numbers, in nM.

Ask | Requested read-out: concentration at 0.5 h. Entry: COc1ccc(C(NC(=O)c2cnc(-c3cccnn3)nc2O)C2CCOCC2)cn1 (single isomer, unassigned)
Reply | 1960

----------
Assay: Pharmacokinetics after intravenous dosing in dogs (plasma concentrations by LC-MS/MS)
Assay type: in vivo, dogs (beagles)
Conditions: dog (beagle), 0.5 mg/kg intravenously, PEG200:water 1:1, time 0.08 hours
measurement-name: concentration at 0.08 h (nM)
Give bare numbers, in nM.

Ask | Requested field: concentration at 0.08 h. Item: COc1ccc(C(NC(=O)c2cnc(-c3cccnn3)nc2O)C2CCOCC2)cn1 (single isomer, unassigned)
Reply | 2230

----------
Assay: Pharmacokinetics after intravenous dosing in dogs (plasma concentrations by LC-MS/MS)
Assay type: in vivo, dogs (beagles)
Details: dog (beagle), 0.5 mg/kg intravenously, time 24.00 hours
measurement-name: concentration at 24 h (nM)
One number for each entry, in nM.

Ask | I have this compound here, COc1ccc(C(NC(=O)c2cnc(-c3cccnn3)nc2O)C2CCOCC2)cn1 (single isomer, unassigned) , and I need its recorded concentration at 24 h.
Reply | 100
